Test system: COLO 205 colon
measurementDescription: NCI tumour cell line growth inhibition, 48 h; in the data active = GI50 below about 0.43 µM; inactive = the rest
Where a SMILES comes first, the peptide text is derived from it. The star is where a group is joined. Boc = CC(C)(C)OC(=O)*
Permitted responses: Yes (active), No (inactive)

Use the examples below as a reference point.
{"columns": ["compound", "className"],
 "data": [
  ["CCN(Cc1ccc(F)cc1)c1ccc(CO)c(Br)c1", "No"],
  ["COc1ccc(-c2nsc3c2NC(=O)CC3c2cccc(OC)c2)cc1 (centres undefined)", "No"],
  ["CN(C)C(=S)Sc1ccc([N+](=O)[O-])cc1[N+](=O)[O-]", "No"],
  ["CC(C)=CCc1cc(O)cc2c1OC(C=C(C)C)C1=C2C(=O)C2=C(C1=O)S(=O)(=O)CCN2 (centres undefined)", "No"],
  ["CC1CCN(C(=O)OCc2nc3nc(Cl)nc(N4CCOCC4)c3[nH]2)CC1", "No"],
  ["COc1ccc(/C(=C\\C=C(C#N)C#N)Sc2nc3ccccc3s2)cc1", "No"],
  ["COC(=O)C(C)NC(=O)C(CCSC)NC(=O)C(Cc1ccccc1)NC(=O)OC(C)(C)C (stereo not drawn) (Boc-Phe-Met-Ala-OMe; configuration not given here)", "No"],
  ["C[C@@]12CCC[C@@](C)(C(=O)O)C1CC[C@]13CC(=O)[C@](CO)(C1)[C@@H](O)CC32 (some centres undefined)", "No"]
]}

Note: attention shifts to another entry.
IN: Which result was noted for this compound in the test: Cn1c(Nc2ccc(C(F)(F)F)cc2)nc2cc(Oc3ccnc(-c4ncc(C(F)(F)F)[nH]4)c3)ccc21
OUT: Yes
